- Target or system: human CD33 C169A (human, UniProt P20138 18-364)
- Sequence (P20138 18-364 C169A limits assumed): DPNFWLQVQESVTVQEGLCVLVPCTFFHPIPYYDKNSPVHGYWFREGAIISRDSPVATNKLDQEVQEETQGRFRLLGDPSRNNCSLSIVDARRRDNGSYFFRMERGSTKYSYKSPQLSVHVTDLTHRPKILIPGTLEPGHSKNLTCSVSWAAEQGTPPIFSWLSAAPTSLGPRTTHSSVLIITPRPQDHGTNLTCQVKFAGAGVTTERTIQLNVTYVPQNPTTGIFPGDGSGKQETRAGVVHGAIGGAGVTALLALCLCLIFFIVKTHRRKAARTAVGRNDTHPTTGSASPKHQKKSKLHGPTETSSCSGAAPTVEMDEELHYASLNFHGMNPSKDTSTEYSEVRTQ
- Test summary: alanine scan, flow cytometry, HEK293-T;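 also: antibody binding to each alanine-substituted CD33 mutant expressed transiently in HEK293-T, read as fluorescence minus background, mean of duplicates, relative to wild-type CD33 set as 100%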
For each of the binders below, state its Mean % WT Binding.
One number for each entry, in %.

For orientation, consider the following solved cases.
# Binder, Mean % WT Binding (%)
measured = [
    ("Refmab #4 (antibody, V domains shown, In the alanine scan antibodies were used as IgG or Fab) VH: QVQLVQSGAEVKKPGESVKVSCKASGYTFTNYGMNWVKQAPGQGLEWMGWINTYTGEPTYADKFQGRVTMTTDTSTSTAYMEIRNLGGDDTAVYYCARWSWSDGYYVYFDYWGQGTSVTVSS VL: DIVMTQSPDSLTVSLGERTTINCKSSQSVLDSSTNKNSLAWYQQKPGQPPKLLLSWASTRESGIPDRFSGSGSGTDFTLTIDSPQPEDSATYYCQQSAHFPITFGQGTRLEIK", 69.3),
    ("Refmab #1 (antibody, V domains shown, In the alanine scan antibodies were used as IgG or Fab; also called hP67.6) VH: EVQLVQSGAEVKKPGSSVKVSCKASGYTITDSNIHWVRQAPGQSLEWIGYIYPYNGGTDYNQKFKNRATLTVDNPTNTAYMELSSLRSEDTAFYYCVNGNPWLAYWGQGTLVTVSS VL: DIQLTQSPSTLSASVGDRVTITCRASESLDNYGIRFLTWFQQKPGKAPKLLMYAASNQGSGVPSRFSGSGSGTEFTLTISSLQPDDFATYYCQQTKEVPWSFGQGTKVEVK", 75.8),
    ("Refmab #3 (antibody, V domains shown, In the alanine scan antibodies were used as IgG or Fab) VH: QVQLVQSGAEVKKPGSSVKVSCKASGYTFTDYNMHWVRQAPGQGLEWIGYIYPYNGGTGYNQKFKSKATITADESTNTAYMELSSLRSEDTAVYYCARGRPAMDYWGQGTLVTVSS VL: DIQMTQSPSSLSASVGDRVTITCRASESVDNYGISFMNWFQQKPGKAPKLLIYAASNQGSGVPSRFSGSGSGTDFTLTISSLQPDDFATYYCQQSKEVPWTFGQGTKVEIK", 115),
]

Let us move to another entry and its Mean % WT Binding.
Query :: What value of Mean % WT Binding has been reported for the following binder? Refmab #2 (antibody, V domains shown, In the alanine scan antibodies were used as IgG or Fab) VH: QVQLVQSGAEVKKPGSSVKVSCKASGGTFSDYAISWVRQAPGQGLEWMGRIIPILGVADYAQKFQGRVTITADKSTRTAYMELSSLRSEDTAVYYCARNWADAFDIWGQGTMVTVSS VL: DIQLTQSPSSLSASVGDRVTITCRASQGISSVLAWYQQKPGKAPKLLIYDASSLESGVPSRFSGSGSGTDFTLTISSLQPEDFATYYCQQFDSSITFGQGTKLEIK
Result :: 106

# credit: patent US20260242735A1
